The entries below come with measured Plant response rating (0 to 100), Cocklebur values attached.
# Test system: cocklebur
# assay.text: Test C pre-/postemergence test
# Assay type: in vivo, Xanthium strumarium
# condition.details: Preemergence, 250 g ai/ha
# output: bare number, no unit

Notebook: Cn1nc(C(F)(F)F)c(CS(=O)(=O)c2cccc[n+]2[O-])c1Cl [Compound 9] , Plant response rating (0 to 100), Cocklebur read as 0

Notebook: CC(c1c(C(F)(F)F)nn(C)c1OCC(F)(F)F)S(=O)(=O)c1cccc[n+]1[O-] (racemic) [Compound 33] , Plant response rating (0 to 100), Cocklebur read as 45

Notebook: CC(c1c(C(F)(F)F)nn(C)c1OC(F)F)S(=O)(=O)c1cccc[n+]1[O-] (stereo not shown) [Compound 5] , Plant response rating (0 to 100), Cocklebur read as 0

Notebook: Cn1nc(C(F)(F)F)c(C[S+]([O-])c2ccc(Cl)c[n+]2[O-])c1OC(F)F (stereo not shown) [Compound 6] , Plant response rating (0 to 100), Cocklebur read as 0

###

# Tested on: corn
# assay.text: Test A pre-/postemergence greenhouse test
# Assay type: in vivo, Zea mays
# condition.details: Postemergence, 125 g ai/ha; 0 to 100 scale, 0 is no effect, 100 is complete control
Decide using Corn plant response rating: a value greater than or equal to 40 is class 1, a smaller one is class 0.

Cn1nc(C(F)(F)F)c(C[S+]([O-])c2ccc(Cl)c[n+]2[O-])c1Cl (racemic)
class 1
Cn1nc(C(F)(F)F)c(C[S+]([O-])c2ccc(Br)c[n+]2[O-])c1OC(F)F (racemic)
class 1
Cn1nc(C(F)(F)F)c(C[S+]([O-])c2cc(Cl)cc[n+]2[O-])c1Cl (racemic)
class 0
Cc1cc[n+]([O-])c([S+]([O-])Cc2c(C(F)(F)F)nn(C)c2Cl)c1 (racemic)
class 0

Input line: Identify whether the reported Corn plant response rating of the following molecule is 40 or greater: CC(c1c(C(F)(F)F)nn(C)c1OC(F)F)S(=O)(=O)c1ccc(Br)c[n+]1[O-] (racemic)
Output line: class 0

Input line: Identify whether the reported Corn plant response rating of the following molecule is 40 or greater: CC(c1c(C(F)(F)F)nn(C)c1Cl)[S+]([O-])c1cccc[n+]1[O-] (mixture of isomers)
Output line: class 0

Input line: Identify whether the reported Corn plant response rating of the following molecule is 40 or greater: Cn1nc(C(F)(F)F)c(C[S+]([O-])c2ccc(Cl)c[n+]2[O-])c1OC(F)F (centres unmarked)
Output line: class 1

###

# Tested on: wild oat
# assay.text: Test C pre-/postemergence test
# Type: in vivo, Avena fatua
# condition.details: Preemergence, 31 g ai/ha; scale 0 to 100 (0 no effect, 100 complete control)
endpoint.name: Plant response rating, Oat, Wild
# output: bare number, no unit

CC(c1c(C(F)(F)F)nn(CC(F)(F)F)c1Cl)[S+]([O-])c1cccc[n+]1[O-] (stereo not drawn)
0
CCn1nc(C(F)(F)F)c(CS(=O)(=O)c2cc(C)cc[n+]2[O-])c1OCC(F)(F)F
50
Cc1cc[n+]([O-])c(S(=O)(=O)Cc2c(C(F)(F)C(F)(F)F)nn(C)c2OCC(F)(F)F)c1
30
Cn1nc(C(F)(F)F)c(CS(=O)(=O)c2ccc(Cl)c[n+]2[O-])c1OCC(F)(F)F
40
Cc1cc[n+]([O-])c(S(=O)(=O)C(Cl)c2c(C(F)(F)F)nn(C)c2OCC(F)(F)F)c1 (racemic)
0

Notebook: Cn1nc(C(F)(F)F)c(C[S+]([O-])c2cc(C(C)(C)C)cc[n+]2[O-])c1OC(F)F (racemic) , Plant response rating, Oat, Wild read as 50

Notebook: C#CCOc1c(C[S+]([O-])c2cccc[n+]2[O-])c(C(F)(F)F)nn1C (stereo not drawn) , Plant response rating, Oat, Wild read as 0

Notebook: CCn1nc(C(F)(F)F)c(C[S+]([O-])c2cccc[n+]2[O-])c1OCC(F)(F)F (racemic) , Plant response rating, Oat, Wild read as 85

All values here come from patent US20100298141A1.
